This collection of values is drawn from patent US9609868B2.

# Assay comment: log P by HPLC on reversed-phase column (C18), EEC directive 79/831 Annex V.A8
# Format: physicochemical
# Condition details: Table A; HPLC reversed-phase C18, 43° C.; data refer to the E isomer
Readout: log p

Compound: CON=Cc1cc(C)c(NC(=O)c2cc(CF)nn2-c2ncccc2Cl)c(C(=O)NNC(=O)OC)c1 (mixture of isomers) [A-44]
log p: 2.02
--
Compound: CON=Cc1cc(C)c(NC(=O)c2cc(C(F)F)nn2-c2ncccc2Cl)c(C(=O)NN(C)C(=O)OC)c1 (mixture of isomers) [A-47]
log p: 2.21

[in] Assign log p to the following record: CON=Cc1cc(C)c(NC(=O)c2cc(Br)nn2-c2ncccc2Cl)c(C(=O)N(C)NC(=O)OC(C)C)c1 [A-16]
[out] 3.28

[in] Assign log p to the following record: CON=Cc1cc(C)c(NC(=O)c2cc(C(F)(F)F)nn2-c2ncccc2Cl)c(C(=O)NNC(=O)Oc2ccccc2)c1 [A-19]
[out] 3.02
